- System: HL-60(TB) leukemia
- measurementProtocol: NCI tumour cell line growth inhibition, 48 h
measureName: TGI

| molecule | measureName | assayValue |
| --- | --- | --- |
| O=NNc1ccc(S(=O)c2ccccc2)cn1 (stereo not given) | TGI | > 100 µM |

Summary for this molecule, COc1cccc(-n2ncc3c(N/N=C/c4ccc(F)cc4)ncnc32)c1 : TGI is > 25 µM

Summary for this molecule, O=C(Nc1cccc(-n2cc(-c3ccncc3)c(-c3ccc(Cl)c(O)c3)n2)c1)Nc1cccc(C(F)(F)F)c1 : TGI is > 32.5 µM

Summary for this molecule, N#Cc1nc(-c2cccnc2)oc1N : TGI is > 100 µM

Summary for this molecule, CCOP(=O)(/C=C/n1ccc(=O)[nH]c1=O)OCC : TGI is > 100 µM

* * *

- Test system: NCI-H522 lung
- measurementProtocol: NCI tumour cell line growth inhibition, 48 h; in the data active = GI50 below about 0.43 µM; inactive = the rest
Entry note: the call must match one of True (active), False (inactive)

Take a look at these entries with their results.
| compound | groupLabel |
| --- | --- |
| O=c1ccc(N=Nc2ccccc2)ccc1Cl | False |
| Oc1ccc(/C=C/c2ccc(O)cc2)cc1 | False |
| COc1cc(-c2cc(/C=C3\C(=O)Nc4ccc(Cl)cc43)[nH]n2)cc(OC)c1OC | False |
| CSc1nn2c(-c3ccc4ccccc4c3)ccnc2c1C#N | False |

Task item: Fill in: this test's call for C=CCOC1=CC(=O)c2ccccc2C1=O is ___
Reply: False

Task item: Fill in: this test's call for Nc1[nH]c(=O)nc2c1cnn2Cc1ccccc1 is ___
Reply: False

Task item: Fill in: this test's call for Cc1ccc2c(NCCCN(C)C)c3c(C)nn(C)c3nc2c1 is ___
Reply: False

* * *

- Test system: KM20L2 colon
- measurementProtocol: NCI tumour cell line growth inhibition, 48 h
measureName: TGI

A selection of reference data follows.
| molecule | assayValue |
| --- | --- |
| CCC(C)NC1=C(NC(C)=O)C(=O)c2ccccc2C1=O (configuration not stated) | > 75 µM |
| Cc1nc(C(N)=S)sc1C(=O)CC(=O)C(=O)Nc1c(C(C)C)cccc1C(C)C | > 100 µM |
| CC(SC(=S)Nc1cccc(F)c1)C(=O)O (configuration not stated) | 90.8 µM |
| COc1ccc(N(CC(=O)O)S(=O)(=O)c2ccccc2)cc1 | > 100 µM |
| C[C@]12CC[C@@H]3c4ccc(O)cc4CC[C@H]3[C@@H]1CC[C@@H]2OC(=O)CCC1CCCC1 | 33.1 µM |

Summary for this molecule, O=C(CC1(O)C(=O)Nc2ccc([N+](=O)[O-])cc21)c1ccc2ccccc2c1 (configuration not stated) : TGI is > 100 µM

Summary for this molecule, OCC(CO)C1c2cccc3ccc4cccc1c4c23 : TGI is > 100 µM

* * *

- Tested on: SF-295 CNS
- measurementProtocol: NCI tumour cell line growth inhibition, 48 h
measureName: TGI

A selection of reference data follows.
| compound | assayValue |
| --- | --- |
| CC1OC(=O)C2CC3CCCCC3C(/C=C/C3CCCC(C)N3C)C12 (centres undefined) | > 68.1 µM |
| CN=C(NC#N)N(Cc1ccccc1)Cc1ccccc1 | > 100 µM |
| CCCCCOC(=O)C(=O)Nc1n[nH]nc1C(N)=O | > 100 µM |

# lookup: CCCn1c2c(c3ccccc3c1=O)C(=O)c1cc3c(cc1-2)OCO3 on SF-295 CNS, TGI = > 100 µM

* * *

A collection of compounds and their measured GI50
- System: LOX IMVI melanoma
- measurementProtocol: NCI tumour cell line growth inhibition, 48 h

| compound | system | assayValue |
| --- | --- | --- |
| COC(=O)c1cc2cc(-c3ccc(OC)cc3)cnc2[nH]1 | LOX IMVI melanoma | 2190 nM |
| C=CCOC1=CC(=O)c2ccccc2C1=O | LOX IMVI melanoma | 1710 nM |
| CN(C)c1ccc(O)c2c1CC1CC3C(N(C)C)C(=O)C(C(N)=O)=C(O)C3(O)C(=O)C1=C2O (stereo not drawn) | LOX IMVI melanoma | 6210 nM |

Summary for this compound, Oc1ccc(/C=C/c2ccc(O)cc2)cc1 : GI50 is 2850 nM

Summary for this compound, CN1CCN(Cc2ccc(NC(=O)c3nc4ccc5[nH]ncc5c4c4c3CCCC4)cc2C(F)(F)F)CC1 : GI50 is 846 nM

Summary for this compound, NS(=O)(=O)N(c1cc(C(F)(F)F)cc(C(F)(F)F)c1)C1CCN(Cc2ccc(C(F)(F)F)cc2)CC1 : GI50 is 7430 nM

Summary for this compound, CCSc1ccc2c(c1)N(CCCN1CCN(C)CC1)c1ccccc1S2 : GI50 is 1670 nM

Summary for this compound, Cn1cc(C2=C(c3cn(C)c4cc(C(=O)O)ccc34)C(=O)NC2=O)c2ccccc21 : GI50 is > 13900 nM

* * *

- Tested on: OVCAR-4 ovarian
- measurementProtocol: NCI tumour cell line growth inhibition, 48 h
A collection of compounds and their measured GI50

Summary for this compound, CCN(CC)CCCN1C(=O)c2c(c(C)c3c(oc4ccc(O)cc43)c2C)C1=O : GI50 is 1930 nM

Summary for this compound, Cc1nn(-c2ccccc2)c(-n2ccnc2)c1/C=N/Nc1nc(-c2ccc(Cl)c(Cl)c2)cs1 : GI50 is 1480 nM

Summary for this compound, N#Cc1c(-c2ccccc2)n([O-])c2ccccc2[n+]1=O : GI50 is 28800 nM

Summary for this compound, O=[N+]([O-])c1cc([N+](=O)[O-])c(N2CCCC2)cc1NN=C(c1ccc(O)cc1)c1ccc(O)cc1 : GI50 is 4030 nM

Summary for this compound, O=C1c2[nH]cc(CN3CCN(CCO)CC3)c2C(=O)c2c1c(O)c1ccccc1c2O : GI50 is 13300 nM

Summary for this compound, CCCCCCCCCCCCCCCCNC(=O)OC(C)C : GI50 is 2010 nM

Summary for this compound, Cc1nnc([S-])o1.[Au+].c1ccc([PH+](c2ccccc2)c2ccccc2)cc1 : GI50 is 1590 nM

* * *

- Tested on: NCI-H23 lung
- measurementProtocol: NCI tumour cell line growth inhibition, 48 h
measureName: TGI

A selection of reference data follows.
| molecule | TGI |
| --- | --- |
| Oc1ccc(/C=C/c2ccc(O)cc2)cc1 | > 90.5 µM |
| COc1ccc(NS(=O)c2ccc(Cl)cc2)cc1 (configuration not stated) | > 100 µM |
| CCCCCCCCCCCCCCCCNC(=O)OC(C)C | 10.3 µM |
| Cc1ccc(N=NC(=O)NNc2ccc(C)c([N+](=O)[O-])c2)cc1[N+](=O)[O-] | > 100 µM |
| Cc1cc(O)c(C=NC(=S)C(N)=S)c(=O)o1 | > 100 µM |

Summary for this molecule, O=S(=O)(O)c1ccc2c(N=Nc3cccc4ccccc34)c(O)c(S(=O)(=O)O)cc2c1 : TGI is > 100 µM

Summary for this molecule, COc1ccc(CN2CCc3c(Sc4ccccc4)nc(N)nc3C2=O)c(OC)c1 : TGI is 38.4 µM

Summary for this molecule, Cc1ccc(-c2c(C#N)c(N)[nH]c(=S)c2C#N)cc1 : TGI is > 100 µM

Summary for this molecule, COC(=O)C(C)(Cc1ccc2c(c1)nnn2C(C)=O)NC(C)=O (configuration not stated) : TGI is > 100 µM

Summary for this molecule, O=NNc1ccc(S(=O)c2ccccc2)cn1 (configuration not stated) : TGI is > 100 µM

Summary for this molecule, CCC(C)NC1=C(NC(C)=O)C(=O)c2ccccc2C1=O (configuration not stated) : TGI is > 75 µM

Summary for this molecule, O=C1c2[nH]cc(CN3CCN(CCO)CC3)c2C(=O)c2c1c(O)c1ccccc1c2O : TGI is 39.4 µM

Summary for this molecule, COc1cc(-c2cc(/C=C3\C(=O)Nc4ccc(Cl)cc43)[nH]n2)cc(OC)c1OC : TGI is > 100 µM

Summary for this molecule, Cc1ccc2nc3n(c2c1)C(c1c(F)cccc1F)SC3 (configuration not stated) : TGI is > 100 µM

Summary for this molecule, CCOC(=O)c1c2c(n(Cc3ccc(Cl)cc3Cl)c1C)-c1nc(Cc3ccccc3)[nH]c1C(=O)C2=O : TGI is 4.29 µM

Summary for this molecule, O=c1cc(NNc2ccc3ccccc3c2)[nH]c(=S)[nH]1 : TGI is > 100 µM

Summary for this molecule, O=CCOCc1cc2c(cc1Br)OCO2 : TGI is 28.7 µM

* * *

A collection of compounds and their measured TGI
- System: NCI-H522 lung
- measurementProtocol: NCI tumour cell line growth inhibition, 48 h

Summary for this compound, Cc1cc(O)c(C=NC(=S)C(N)=S)c(=O)o1 : TGI is > 100 µM

Summary for this compound, NS(=O)(=O)c1ccc(Nc2ncc(-c3ccccc3)o2)cc1 : TGI is > 25 µM

Summary for this compound, Fc1cc(-c2cc(-c3ccccc3)n[nH]2)c(Cl)cc1Cl : TGI is > 100 µM

Summary for this compound, Cc1noc(NS(=O)(=O)c2ccc(NC(=O)c3ccc4nc5ccccc5c(Nc5ccc(S(=O)(=O)Nc6onc(C)c6C)cc5)c4c3)cc2)c1C : TGI is > 100 µM

Summary for this compound, COc1cc(C(=O)C(CO)Oc2ccccc2OC)ccc1O (stereo unspecified) : TGI is > 100 µM

Summary for this compound, CCSc1ccc2c(c1)N(CCCN1CCN(C)CC1)c1ccccc1S2 : TGI is 3.5 µM

Summary for this compound, CCN(CCCNC(=O)Cc1cc(=O)oc2cc(N(C)C)ccc12)CCNc1ccnc2cc(Cl)ccc12 : TGI is 16.2 µM

Summary for this compound, COc1ccc2c(c1)O[C@@H]1[C@@H](OC3OC(CO)C(O)C(O)C3O)Oc3cc(OC)c(OC)cc3[C@]1(O)C2=O (stereo partly specified) : TGI is > 100 µM

Summary for this compound, O=C(Nc1cccc(-n2cc(-c3ccncc3)c(-c3ccc(Cl)c(O)c3)n2)c1)Nc1cccc(C(F)(F)F)c1 : TGI is 14.5 µM

Summary for this compound, O=CC(NC(=O)N(CCCl)N=O)C(O)C(O)C(O)CO (stereo unspecified) : TGI is > 1250 µM

Summary for this compound, CCN(CC)CCCN1C(=O)c2c(c(C)c3c(oc4ccc(O)cc43)c2C)C1=O : TGI is 3.75 µM
